- system-under-test: T1, c-Met ECD/Fc (R&D Systems #358 MT), human (human, UniProt P08581 25-932)
- T1 construct: extracellular domain; Bought fusion protein; also called c-Met ECD-Fc (human); human Met ECD-Fc; not shown: Fc part of the bought fusion protein
- T1 sequence (P08581 25-932): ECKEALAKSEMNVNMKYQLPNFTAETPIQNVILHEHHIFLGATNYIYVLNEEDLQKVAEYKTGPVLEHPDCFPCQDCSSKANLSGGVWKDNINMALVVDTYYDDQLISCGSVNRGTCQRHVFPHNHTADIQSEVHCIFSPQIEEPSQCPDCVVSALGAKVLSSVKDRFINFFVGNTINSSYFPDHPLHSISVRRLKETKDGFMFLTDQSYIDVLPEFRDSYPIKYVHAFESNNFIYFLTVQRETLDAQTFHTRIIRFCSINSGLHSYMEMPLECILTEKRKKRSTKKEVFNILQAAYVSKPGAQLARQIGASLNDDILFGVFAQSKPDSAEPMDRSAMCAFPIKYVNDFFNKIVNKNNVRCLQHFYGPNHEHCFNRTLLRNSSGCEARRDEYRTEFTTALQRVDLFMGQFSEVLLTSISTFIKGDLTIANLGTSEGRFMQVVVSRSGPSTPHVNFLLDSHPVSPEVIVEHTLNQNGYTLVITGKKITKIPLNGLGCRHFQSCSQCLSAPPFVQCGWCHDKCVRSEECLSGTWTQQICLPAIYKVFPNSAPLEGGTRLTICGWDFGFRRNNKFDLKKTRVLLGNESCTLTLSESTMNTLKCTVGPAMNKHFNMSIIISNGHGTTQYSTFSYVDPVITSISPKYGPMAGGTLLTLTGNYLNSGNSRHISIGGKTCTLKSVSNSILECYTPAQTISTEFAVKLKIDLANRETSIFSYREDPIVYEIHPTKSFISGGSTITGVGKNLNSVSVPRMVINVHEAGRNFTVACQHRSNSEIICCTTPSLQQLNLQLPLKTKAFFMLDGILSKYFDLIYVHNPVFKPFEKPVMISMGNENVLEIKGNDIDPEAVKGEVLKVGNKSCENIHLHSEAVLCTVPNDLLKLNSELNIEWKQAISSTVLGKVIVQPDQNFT
- experiment-notes: ELISA, inhibition of HGF binding to plate-coated c-Met ECD/Fc
parameter: IC50
Note to self: number, then unit, no commentary.

Request: Return IC50 (reported value) for this binder: anti-c-Met monoclonal antibody 13.3.2L-A91T, H-E42K, S97T (antibody, human IgG2, kappa, V domains shown, positions 42, 97, 14 and 91 count from the N-terminal amino acid and may not count on the entry with its leader) VH: QVQLVQSGAEVKKPGASVKVSCKASGYTFTSYGFSWVRQAPGQGLEWMGWISASNGNTYYAQKLQGRVTMTTDTSTSTAYMELRSLRSDDTAVYYCARVYADYADYWGQGTLVTVSS VL: DIQMTQSPSSVSASVGDRVTITCRASQGINTWLAWYQQKPGKAPKLLIYAASSLKSGVPSRFSGSGSGTDFTLTISSLQPEDFATYYCQQANSFPLTFGGGTKVEIKR
Result: 0.127 µg/mL
